Ref: ChEMBL document CHEMBL1201862

tested on: NCI-H23; test: NCI tumour cell line growth inhibition, 48 h
Calls of active or inactive are those of the source. Cut-off read from the data, not from the text of the source: active = GI50 up to about 1.1 µM and inactive = higher.
For each record, write down the corresponding GI50.

Requested read-out: GI50. Entry: CCCCCCCCCCCCOCC(COP(=O)(O)OCCN=[N+]=[N-])OC(=O)CCCCCCCCCCC (stereo not given)
> 100 µM (inactive)

# input compound: COC1CC(O)C(OC(=O)c2ccccc2)C(C)O1 (stereo not given) ; wanted: its GI50
> 100 µM (inactive)

Any idea what GI50 was measured for CCOc1ccccc1/N=N/C1C(=O)N(C(=O)CC(=O)Nc2ccccc2OC)N=C1C (stereo not given) ?
80 µM (inactive)

Entry under review: C=CCC1(CN(C)C)CC/C(=C\c2ccc3c(c2)OCO3)C1=O (stereo not given) . Reported GI50?
65.8 µM (inactive)

GI50 for CC(C)(C)/C(O)=C\c1nc2ccc(C(F)(F)F)cc2[nH]c1=O ?
> 100 µM (inactive)

---

system: OVCAR-3; assay: NCI tumour cell line growth inhibition, 48 h
Active and inactive are the calls of the source. Rule as the data show it: active = GI50 up to about 1.1 µM and inactive = higher.
Your response should consist of one outcome taken from active, inactive

Which result was noted for this molecule in the test: C[C@H]1CCC2C(OC(=O)[C@@H]2CN(C)C)[C@]2(C)C(=O)C=CC12O (stereo not given in full)
inactive

So what was the verdict on COC1CC(O)C(OC(=O)c2ccccc2)C(C)O1 (stereo not given) in this test?
inactive

Can you look up the reported call for CC(=O)C1=CC=C/C1=N\Nc1ccccc1 for me?
inactive

What did this assay record as the result for CC(=O)N[C@@H](Cc1ccc(O)cn1)C(=O)NCc1ccc(Cl)cc1 ?
inactive

Given COc1ccc2c(c1)[C@@H]1c3cc(OC)c(OC)cc3CCN1CCC2 , state the outcome it received in this test.
inactive

Recorded test outcome, item O=C1C[C@@H](c2ccccc2)O[C@@H](c2ccccc2)C1
inactive

# fetch the recorded call for O=S(=O)(O)c1ccc(-c2c3nc(c(-c4ccc(S(=O)(=O)O)cc4)c4ccc([nH]4)c(-c4ccc(S(=O)(=O)O)cc4)c4nc(c(-c5ccc(S(=O)(=O)O)cc5)c5ccc2[nH]5)C=C4)C=C3)cc1 here
inactive

How was O=C1C(=Cc2c(O)cc(O)cc2O)C(=O)c2ccccc21 classified in this test?
inactive

I would be grateful if you could indicate the recorded call for Cc1ccc(S(=O)(=O)N2CCSCCSCCSCCSCC2)cc1 .
inactive

Give the logged outcome of this assay for the following molecule: O=c1cc(-c2ccccc2)oc2cc(Oc3nnnn3-c3ccccc3)ccc12
inactive

Recorded test call requested for N#C/C(=C\c1cc(O)c(O)c(O)c1)C(N)=O
inactive

Could you kindly confirm the outcome this assay logged for C=C1C(=O)C23CC1CCC2C12CO[C@H](O)[C@H]1C(C)(C)[C@H](OC(C)=O)C[C@H]2OC3=O (stereo not given in full) ?
inactive

Dear colleague, could you share the recorded outcome for CC1=C(C)C1[N+](=O)[O-] when you have a moment?
inactive

Returns: the outcome recorded for CN(C)c1ccc(C(=O)NCCCCCCC(=O)NO)cc1 in this assay.
active

Could you check what this test reported for O=C1C=C2S[C@H]3C[C@]2(C=C1Br)C1=C(N3)C(=O)c2[nH]cc3c2C1=NCC3 [(+)-DISCORHABDIN B] ?
active

Hi, do you know how O=C(CC1C(=O)Nc2ccccc2S1(=O)=O)Nc1ccc(Cl)cc1 (stereo not given) came out in this test?
inactive

Field: outcome | Entry: COc1cccc(/C=C2\N=C(c3ccccc3)OC2=O)c1
inactive

Look up the recorded call for O=C1/C(=C\c2ccc(Cl)cc2Cl)Sc2scc(-c3cccc([N+](=O)[O-])c3)[n+]21 in this test.
inactive

Outcome? O=C(NC1CC1)c1c(O)[nH]c(=S)[nH]c1=O
inactive

Hi team, can someone confirm the assay call for CC1=CC2C3(C)C(C)(C(C)=CP3(=O)c3c(C(C)C)cc(C(C)C)cc3C(C)C)C1P2(=O)c1c(C(C)C)cc(C(C)C)cc1C(C)C (stereo not given) ?
inactive
